system: normal mice; experiment: Acute toxic effect of platinum complex on normal mice (LD50, single intravenous administration); type: in vivo, Kunming mice; conditions: single intravenous administration in 5% glucose solution, 14 days observation, Bliss method
RESULT_TYPE: LD50 value

As a guide, the following entries are already answered.
{"columns": ["COMPOUND", "LD50 value"],
 "data": [
  ["CCN(CC)CCCC1CC(=O)[O][Pt]2([NH]C3CCC3[NH]2)[O]C1=O (stereo not shown) [Compound 16]", "0.623 mmol/kg"],
  ["CCN(CC)CCC1CC(=O)[O][Pt]2([NH]CC3(CCOCC3)C[NH]2)[O]C1=O (stereo not shown) [Compound 26]", "0.526 mmol/kg"],
  ["CCNCCC1CC(=O)[O][Pt]2([NH]C3CCCCC3[NH]2)[O]C1=O (stereo not shown) [Compound 12]", "0.602 mmol/kg"]
]}

Here is the next item to consider.
IN: Check the records and state LD50 value for CCN(CC)CCC(CC(=O)[O-])C(=O)[O-].NCC1CCC1CN.[Pt+2] (racemic) [Compound 24]
OUT: 0.525 mmol/kg

----------
experiment: Solubility in water of the embodiment and contrast compounds
Examples of molecules with documented solubility follow.
The reply should be a number in mg/mL, with the unit left off.

Consider the following illustrative entries.
{"columns": ["MOLECULE", "solubility, mg/mL"],
 "data": [
  ["CCN(CC)CCCC(CC(=O)[O-])C(=O)[O-].NC1CCCC1N.[Pt+2] (racemic)", 151],
  ["CN(C)CCC(CC(=O)[O-])C(=O)[O-].NCC1CCC1CN.[Pt+2] (racemic)", 165],
  ["CCN(CC)CCCCC(CC(=O)[O-])C(=O)[O-].NCCN.[Pt+2] (centres unmarked)", 187],
  ["CCN(CC)CCC1CC(=O)[O][Pt]2([NH]CC3(CCOCC3)C[NH]2)[O]C1=O (centres unmarked)", 165],
  ["CCCN(CCC)CCCC(CC(=O)[O-])C(=O)[O-].NCCCCN.[Pt+2] (centres unmarked)", 162],
  ["CCN(CC)CCC1CC(=O)[O][Pt]2([NH]CCC[NH]2)[O]C1=O (centres unmarked)", 200],
  ["CN(C)CCC(CC(=O)[O-])C(=O)[O-].NCCN.[Pt+2] (centres unmarked)", 226]
]}

Now for a further molecule.
IN: Tell us which solubility value is on record for CCN(CC)CCCC1CC(=O)[O][Pt]2([NH]C3CCC3[NH]2)[O]C1=O (centres unmarked)
OUT: 186

----------
assay: physchem; conditions: water
# key: entry, value: solubility
Numeric answer only, unit mg/mL assumed.

IN: Report solubility, nothing else, for this molecule: [NH2][Pt]1([NH2])[O]C(=O)CC(CCCN2CCCC2)C(=O)[O]1 (stereo not drawn) [Compound 8]
OUT: 135

----------
tested on: normal mice; assay: Acute toxic effect of platinum complex on normal mice (LD50, single intravenous administration); assay type: in vivo, Kunming mice; conditions: single intravenous administration in 5% glucose solution, 14 days observation, Bliss method
Recorded LD50 value, one value per entry.
Kindly provide the numeric value in mmol/kg only, without the unit symbol.

Look over these answered cases.
{"columns": ["COMPOUND", "EXPERIMENTAL_SYSTEM", "UNIT_ANNOTATION", "LD50 value"],
 "data": [
  ["CCN(CC)CCCC(CC(=O)[O-])C(=O)[O-].NC1CC1N.[Pt+2] (racemic)", "normal mice", "mmol/kg", 0.581],
  ["CCCN(CCC)CCCC(CC(=O)[O-])C(=O)[O-].NCCCCN.[Pt+2] (stereo not shown)", "normal mice", "mmol/kg", 0.513],
  ["CCN(CC)CCCCC(CC(=O)[O-])C(=O)[O-].NCCN.[Pt+2] (stereo not shown)", "normal mice", "mmol/kg", 0.612]
]}

IN: Return reported LD50 value. Input compound: CCN(CC)CCC1CC(=O)[O][Pt]2([NH]CCC[NH]2)[O]C1=O (stereo not shown)
OUT: 0.454

----------
tested on: Lung cancer H292; test: MTT cytotoxicity, lung cancer H292; format: cell-based; conditions: n = 6, Lung cancer H292
RESULT_TYPE: IC50 (µM)
The reply should contain only the number, in µM.

// worked examples, IC50 included
{"columns": ["COMPOUND", "EXPERIMENTAL_SYSTEM", "UNIT_ANNOTATION", "IC50"],
 "data": [
  ["CCN(CC)CCC(CC(=O)[O-])C(=O)[O-].NC1CCCCC1N.[Pt+2] (racemic) [Compound 10]", "Lung cancer H292", "µM", 24],
  ["CN(C)CCCC1CC(=O)[O][Pt]2([NH]C3CCCCC3[NH]2)[O]C1=O (centres unmarked) [Compound 11]", "Lung cancer H292", "µM", 13],
  ["CCCN(CCC)CCCC(CC(=O)[O-])C(=O)[O-].NCCCCN.[Pt+2] (centres unmarked) [Compound 20]", "Lung cancer H292", "µM", 59],
  ["CCN(CC)CCCC(CC(=O)[O-])C(=O)[O-].NC1CC1N.[Pt+2] (racemic) [Compound 17]", "Lung cancer H292", "µM", 31],
  ["NCCC(CC(=O)[O-])C(=O)[O-].N[C@@H]1CCCC[C@H]1N.[Pt+2] (relative stereo) [Compound 9]", "Lung cancer H292", "µM", 26],
  ["CCN(CC)CCCC(CC(=O)[O-])C(=O)[O-].NC1CCCC1N.[Pt+2] (racemic) [Compound 15]", "Lung cancer H292", "µM", 145],
  ["NC(CC(=O)[O-])C(=O)[O-].NC1CCCCC1N.[Pt+2] (racemic) [ADP, reference compound]", "Lung cancer H292", "µM", 61]
]}

Now, please, on to the next compound.
IN: Return the recorded IC50 value; entry: CCN(CC)CCC(CC(=O)[O-])C(=O)[O-].NC1CCC(N)CC1.[Pt+2] (centres unmarked) [Compound 25]
OUT: 106

----------
LD50 value values for the compounds below.
tested on: normal mice; assay: Acute toxic effect of platinum complex on normal mice (LD50, single intravenous administration); format: in vivo, Kunming mice; conditions: single intravenous administration in 5% glucose solution, 14 days observation, Bliss method

{"columns": ["COMPOUND", "EXPERIMENTAL_SYSTEM", "LD50 value"],
 "data": [
  ["NC1CCCCC1N.O=C([O-])CC(CCCN1CCCCC1)C(=O)[O-].[Pt+2] (racemic)", "normal mice", "0.542 mmol/kg"],
  ["CCCN(CCC)CCCC(CC(=O)[O-])C(=O)[O-].N[C@@H]1CCCC[C@H]1N.[Pt+2] (stereo not shown)", "normal mice", "0.467 mmol/kg"],
  ["CCN(CC)CCCC(CC(=O)[O-])C(=O)[O-].NC1CCCC1N.[Pt+2] (racemic)", "normal mice", "0.528 mmol/kg"]
]}

From here, focus on the item given below.
IN: Using known records, supply LD50 value for CN(C)CCC(CC(=O)[O-])C(=O)[O-].NCCN.[Pt+2] (stereo not shown)
OUT: 0.532 mmol/kg

----------
# Tumor inhibition rate (x ± SD) annotations
system: colon cancer SW480; experiment: In vivo antitumor activity, colon cancer SW480 in nude mice; settings: SW480 in male nude mice, 10 mg (platinum)/kg, once a week, 4 times, tumor weighed after 4 weeks
# unit: % | format: bare number

{"columns": ["COMPOUND", "RESULT_TYPE", "OBSERVED"],
 "data": [
  ["CN(C)CCCC1CC(=O)[O][Pt]2([NH]C3CCCCC3[NH]2)[O]C1=O (centres unmarked)", "Tumor inhibition rate (x ± SD)", 46.3],
  ["CCN(CC)CCC(CC(=O)[O-])C(=O)[O-].NC1CCCCC1N.[Pt+2] (racemic)", "Tumor inhibition rate (x ± SD)", 55.1],
  ["NCCC(CC(=O)[O-])C(=O)[O-].N[C@@H]1CCCC[C@H]1N.[Pt+2] (relative stereo)", "Tumor inhibition rate (x ± SD)", 44.8],
  ["CCNCCC1CC(=O)[O][Pt]2([NH]C3CCCCC3[NH]2)[O]C1=O (centres unmarked)", "Tumor inhibition rate (x ± SD)", 46.8]
]}

API: the following record is the query input.
IN: # assay system colon cancer SW480: give Tumor inhibition rate (x ± SD) of NC1CCCCC1N.O=C([O-])CC(CCCN1CCCCC1)C(=O)[O-].[Pt+2] (racemic)
OUT: 56.3

----------
test system: breast cancer MCF-7; experiment: In vivo antitumor activity, breast cancer MCF-7 in nude mice; conditions: MCF-7 in female nude mice, 10 mg (platinum)/kg, once a week, 4 times, tumor weighed 4 weeks later
Measured Tumor inhibition rate (x ± SD) by item

The examples below pair each entry with its known result.
{"columns": ["MOLECULE", "EXPERIMENTAL_SYSTEM", "Tumor inhibition rate (x ± SD)"],
 "data": [
  ["CN(C)CCC(CC(=O)[O-])C(=O)[O-].NCC1CCC1CN.[Pt+2] (racemic)", "breast cancer MCF-7", "85.1 ± 10.37 9%"],
  ["CCCN(CCC)CCCC(CC(=O)[O-])C(=O)[O-].N[C@@H]1CCCC[C@H]1N.[Pt+2] (stereo not drawn)", "breast cancer MCF-7", "70.1 ± 11.55 9%"],
  ["CCN(CC)CCC1CC(=O)[O][Pt]2([NH]CCC[NH]2)[O]C1=O (stereo not drawn)", "breast cancer MCF-7", "65.3 ± 9.15 9%"]
]}

IN: Report measured Tumor inhibition rate (x ± SD); entry is CCN(CC)CCC1CC(=O)[O][Pt]2([NH]C(CO)C(CO)[NH]2)[O]C1=O (stereo not drawn)
OUT: 68.3 ± 10.88 9%

IN: State its Tumor inhibition rate (x ± SD): CCN(CC)CCCC(CC(=O)[O-])C(=O)[O-].NC1CC1N.[Pt+2] (racemic)
OUT: 82.5 ± 11.34 9%

IN: Supply Tumor inhibition rate (x ± SD) value. Item: CCN(CC)CCC(CC(=O)[O-])C(=O)[O-].NC1CCC(N)CC1.[Pt+2] (stereo not drawn)
OUT: 66.9 ± 9.49 9%

IN: For the molecule CCN(CC)CCCC(CC(=O)[O-])C(=O)[O-].NC1CCCC1N.[Pt+2] (racemic) , give its measured Tumor inhibition rate (x ± SD) value.
OUT: 73.5 ± 12.31 9%

IN: Read off the recorded Tumor inhibition rate (x ± SD) for CCN(CC)CCC(CC(=O)[O-])C(=O)[O-].NCC1CCC1CN.[Pt+2] (racemic)
OUT: 69.3 ± 10.13 9%

IN: Input CCN(CC)CCCCC(CC(=O)[O-])C(=O)[O-].NCCN.[Pt+2] (stereo not drawn) , output reported Tumor inhibition rate (x ± SD).
OUT: 76.4 ± 9.78 9%
